Species on record: Rattus norvegicus
Assay: Open TG-GATES - Regimen: Single
Type: toxicity, organism-based, Sprague-Dawley
Parameters: regimen Single, gender Male, age 6 weeks
Conditions: in vivo, po, 0 mg/kg, 6 h, tissue Plasma, route gavage, dose level Control
QUANTITY MEASURED: TC
Note to self: number, then unit, no commentary.

Take a look at these entries with their results.
- MOLECULE: "CCOc1ccc(NC(C)=O)cc1 [PHENACETIN]"
  TC: "78.8 mg/dL"
- MOLECULE: "COC(=O)C1=C(C)NC(C)=C(C(=O)OC)C1c1ccccc1[N+](=O)[O-] [NIFEDIPINE]"
  TC: "78.8 mg/dL"
- MOLECULE: "CN(C)CCC(c1ccc(Cl)cc1)c1ccccn1 (stereo unspecified) [CHLORPHENIRAMINE]"
  TC: "81 mg/dL"
- MOLECULE: "Nc1c2c(nc3ccccc13)CCCC2 [TACRINE]"
  TC: "79.4 mg/dL"
- MOLECULE: "CN1C(=O)CCS(=O)(=O)C1c1ccc(Cl)cc1 (stereo unspecified) [CHLORMEZANONE]"
  TC: "85.2 mg/dL"

The record that follows has no TC shown yet.
Lookup result for Brc1ccccc1 [BROMOBENZENE] ; measured TC: 83.2 mg/dL

* * *

Species on record: Rattus norvegicus
Experiment: Open TG-GATES - Regimen: Single
Assay type: toxicity, organism-based, Sprague-Dawley
Design: regimen Single, gender Male, age 6 weeks
Settings: in vivo, po, 300 mg/kg, 6 h, route gavage, dose level Middle
Assign TERMINAL_BW to each entry below.
One number for each entry, in g.

Take a look at these entries with their results.
- SMILES REPR: "CNC(=C[N+](=O)[O-])NCCSCc1ccc(CN(C)C)o1"
  RESULT UNIT: "g"
  TERMINAL_BW: 214.7
- SMILES REPR: "COC(=O)C1=C(C)NC(C)=C(C(=O)OC)C1c1ccccc1[N+](=O)[O-]"
  RESULT UNIT: "g"
  TERMINAL_BW: 205.3

The record that follows has no TERMINAL_BW shown yet.
Lookup result for `Cc1nnc2n1-c1ccc(Cl)cc1C(c1ccccc1Cl)=NC2` ; measured TERMINAL_BW: 191.6

* * *

Species on record: Rattus norvegicus
Experiment: Open TG-GATES - Regimen: Daily Repeat
Type: toxicity, organism-based, Sprague-Dawley
Parameters: regimen Daily Repeat, gender Male, age 6 weeks
Conditions: in vivo, po, 0 mg/kg, 72 h, tissue Plasma, route gavage, dose level Control, time 3 day
Assign CRE to each entry below.
Answers are plain numbers, in mg/dL.

Take a look at these entries with their results.
- COMPOUND: "CCCc1cc(=O)[nH]c(=S)[nH]1"
  CRE / mg/dL: 0.5
- COMPOUND: "Nc1c2c(nc3ccccc13)CCCC2"
  CRE / mg/dL: 0.2

The record that follows has no CRE shown yet.
Lookup result for CN1C(=O)CCS(=O)(=O)C1c1ccc(Cl)cc1 (stereo not drawn) ; measured CRE: 0.2

* * *

Assign AST to each entry below.
Species on record: Rattus norvegicus
Assay: Open TG-GATES - Regimen: Daily Repeat
Type: toxicity, organism-based, Sprague-Dawley
Set-up: regimen Daily Repeat, gender Male, age 6 weeks
Conditions: in vivo, po, 0 mg/kg, […], tissue Plasma, route gavage, dose level Control, time 14 day
One number for each entry, in IU/L.

Take a look at these entries with their results.
- COMPOUND: "Brc1ccccc1 [BROMOBENZENE]"
  AST [IU/L]: 67.8
- COMPOUND: "CCOc1ccc(NC(C)=O)cc1 [PHENACETIN]"
  AST [IU/L]: 62.4
- COMPOUND: "CN1C(=O)CCS(=O)(=O)C1c1ccc(Cl)cc1 (configuration not stated) [CHLORMEZANONE]"
  AST [IU/L]: 63.8
- COMPOUND: "CN/C(=N/CCSCc1nc[nH]c1C)NC#N [CIMETIDINE]"
  AST [IU/L]: 72.8
- COMPOUND: "CC(C)NNC(=O)c1ccncc1 [IPRONIAZID]"
  AST [IU/L]: 68.4
- COMPOUND: "CN(C)CCC(c1ccc(Cl)cc1)c1ccccn1 (configuration not stated) [CHLORPHENIRAMINE]"
  AST [IU/L]: 66.4

The record that follows has no AST shown yet.
Lookup result for CNC(=C[N+](=O)[O-])NCCSCc1ccc(CN(C)C)o1 [RANITIDINE] ; measured AST: 64.2

* * *

Species: Rattus norvegicus
Experiment: Open TG-GATES - Regimen: Daily Repeat
Assay type: toxicity, organism-based, Sprague-Dawley
Parameters: regimen Daily Repeat, gender Male, age 6 weeks
Conditions: in vivo, po, 300 mg/kg, 72 h, tissue Kidney, route gavage, dose level Middle, time 3 day
QUANTITY MEASURED: KIDNEY_TOTAL (g)
Give bare numbers, in g.

Take a look at these entries with their results.
- SMILES REPR: "COC(=O)C1=C(C)NC(C)=C(C(=O)OC)C1c1ccccc1[N+](=O)[O-]"
  QUANTITY MEASURED: "KIDNEY_TOTAL"
  MEAS VALUE: 1.9
- SMILES REPR: "CNC(=C[N+](=O)[O-])NCCSCc1ccc(CN(C)C)o1"
  QUANTITY MEASURED: "KIDNEY_TOTAL"
  MEAS VALUE: 2

List KIDNEY_TOTAL for every entry below, keeping the order given.
1. CN/C(=N/CCSCc1nc[nH]c1C)NC#N
2. Cc1nnc2n1-c1ccc(Cl)cc1C(c1ccccc1Cl)=NC2

Reply:
1. 2
2. 1.9

* * *

Assign K to each entry below.
Species on record: Rattus norvegicus
Experiment: Open TG-GATES - Regimen: Single
Type: toxicity, organism-based, Sprague-Dawley
Design: regimen Single, gender Male, age 6 weeks
Conditions: in vivo, po, 0 mg/kg, 3 h, tissue Plasma, route gavage, dose level Control
Give bare numbers, in meq/L.

List K for every entry below, keeping the order given.
1. Nc1c2c(nc3ccccc13)CCCC2 [TACRINE]
2. CS(=O)(=O)O.Cc1ccc(NC(=O)c2ccc(CN3CCN(C)CC3)cc2)cc1Nc1nccc(-c2cccnc2)n1 [IMATINIB MESYLATE]
3. CC(C)NNC(=O)c1ccncc1 [IPRONIAZID]

Reply:
3.9
4.1
4.1

* * *

Assign TC to each entry below.
Species on record: Rattus norvegicus
Test: Open TG-GATES - Regimen: Daily Repeat
Format: toxicity, organism-based, Sprague-Dawley
Set-up: regimen Daily Repeat, gender Male, age 6 weeks
Conditions: in vivo, po, 0 mg/kg, […], tissue Plasma, route gavage, dose level Control, time 14 day
Give bare numbers, in mg/dL.

List TC for every entry below, keeping the order given.
1. O=C(OC[C@H]1O[C@@H](OC(=O)c2cc(O)c(O)c(OC(=O)c3cc(O)c(O)c(O)c3)c2)[C@H](OC(=O)c2cc(O)c(O)c(OC(=O)c3cc(O)c(O)c(O)c3)c2)[C@@H](OC(=O)c2cc(O)c(O)c(OC(=O)c3cc(O)c(O)c(O)c3)c2)[C@@H]1OC(=O)c1cc(O)c(O)c(OC(=O)c2cc(O)c(O)c(O)c2)c1)c1cc(O)c(O)c(OC(=O)c2cc(O)c(O)c(O)c2)c1
2. CN1C(=O)CCS(=O)(=O)C1c1ccc(Cl)cc1 (centres undefined)
3. CCCc1cc(=O)[nH]c(=S)[nH]1
4. CN/C(=N/CCSCc1nc[nH]c1C)NC#N

Reply:
1. 70.2
2. 70.8
3. 69.4
4. 70.8

* * *

Species: Rattus norvegicus
Experiment: Open TG-GATES - Regimen: Daily Repeat
Type: toxicity, organism-based, Sprague-Dawley
Set-up: regimen Daily Repeat, gender Male, age 6 weeks
Conditions: in vivo, po, 0 mg/kg, […], tissue Blood, route gavage, dose level Control, time 28 day
QUANTITY MEASURED: MCH

Take a look at these entries with their results.
- COMPOUND: "NC1=NC(=O)C(c2ccccc2)O1 (stereo unspecified) [PEMOLINE]"
  MEAS VALUE: "20.2 pg"
- COMPOUND: "CN1C(=O)CCS(=O)(=O)C1c1ccc(Cl)cc1 (stereo unspecified) [CHLORMEZANONE]"
  MEAS VALUE: "20.2 pg"
- COMPOUND: "CNC(=C[N+](=O)[O-])NCCSCc1ccc(CN(C)C)o1 [RANITIDINE]"
  MEAS VALUE: "20 pg"
- COMPOUND: "CC(C)NNC(=O)c1ccncc1 [IPRONIAZID]"
  MEAS VALUE: "19.7 pg"

List MCH for every entry below, keeping the order given.
1. O=C(OC[C@H]1O[C@@H](OC(=O)c2cc(O)c(O)c(OC(=O)c3cc(O)c(O)c(O)c3)c2)[C@H](OC(=O)c2cc(O)c(O)c(OC(=O)c3cc(O)c(O)c(O)c3)c2)[C@@H](OC(=O)c2cc(O)c(O)c(OC(=O)c3cc(O)c(O)c(O)c3)c2)[C@@H]1OC(=O)c1cc(O)c(O)c(OC(=O)c2cc(O)c(O)c(O)c2)c1)c1cc(O)c(O)c(OC(=O)c2cc(O)c(O)c(O)c2)c1 [TANNIC ACID]
2. CCCc1cc(=O)[nH]c(=S)[nH]1 [PROPYLTHIOURACIL]

Reply:
19.9 pg
19.5 pg
